# Tested on: SEM cells
# assay-info: cell viability relative to DMSO control; higher = less cytotoxic
# experimental-conditions: RPMI 5 mM glucose + 10% dialyzed FBS; 48 h; 5.12 µM
Readings of cell viability for the listed compounds
Just the number please, in %, no unit attached.

Worked examples, 4 compounds total:
CC(C)C(=O)Oc1ccc(CO)cc1[C@H](CCN(C(C)C)C(C)C)c1ccccc1 | 114
CNC[C@H](O)c1ccc(O)c(O)c1 | 89.5
CC(C)NC[C@@H](C(=O)N1CCN(c2ncnc3c2[C@H](C)C[C@H]3O)CC1)c1ccc(Cl)cc1 | 9.56
C[C@@H]\1CC(=O)N\N=C1C2=CC=C(NN=C(C#N)C#N)C=C2 | 107

(Q) Give me measured cell viability, please, for this compound: `C[C@@H]1CC[C@H]2[C@@H](C)C(=O)O[C@@H]3O[C@@]4(C)CC[C@@H]1[C@]32OO4`
(A) 72.2

(Q) Consider the compound `S=C1N\C=N/C2=C1[NH]C=N2` and give its recorded cell viability.
(A) 48.5

(Q) Item CCOC(=O)\C1=C(/C)N\C2=C(C1C3=CC=C(C=C3)C4=CC=CC=C4)\C(=O)CC(C)(C)C2 (centres undefined) : provide cell viability
(A) 89.8

(Q) Output cell viability of `O=C1c2c(O)ccc(O)c2C(=O)c2c(NCCNCCO)ccc(NCCNCCO)c21`
(A) 4.3

(Q) Given the compound `COC(=O)[C@@H]1[C@H]2C[C@H]3c4[nH]c5ccccc5c4CCN3C[C@@H]2CC[C@@H]1O` , write its reported cell viability.
(A) 130

Reference source for all entries: the supplement of paper PMC11451515
